Origin of the recorded values: ChEMBL document CHEMBL4840323

- Target or test system: beta-catenin-B-cell lymphoma 9 protein complex (Homo sapiens, UniProt P35222)
- Sequence (P35222 whole entry, the tested form may be a part): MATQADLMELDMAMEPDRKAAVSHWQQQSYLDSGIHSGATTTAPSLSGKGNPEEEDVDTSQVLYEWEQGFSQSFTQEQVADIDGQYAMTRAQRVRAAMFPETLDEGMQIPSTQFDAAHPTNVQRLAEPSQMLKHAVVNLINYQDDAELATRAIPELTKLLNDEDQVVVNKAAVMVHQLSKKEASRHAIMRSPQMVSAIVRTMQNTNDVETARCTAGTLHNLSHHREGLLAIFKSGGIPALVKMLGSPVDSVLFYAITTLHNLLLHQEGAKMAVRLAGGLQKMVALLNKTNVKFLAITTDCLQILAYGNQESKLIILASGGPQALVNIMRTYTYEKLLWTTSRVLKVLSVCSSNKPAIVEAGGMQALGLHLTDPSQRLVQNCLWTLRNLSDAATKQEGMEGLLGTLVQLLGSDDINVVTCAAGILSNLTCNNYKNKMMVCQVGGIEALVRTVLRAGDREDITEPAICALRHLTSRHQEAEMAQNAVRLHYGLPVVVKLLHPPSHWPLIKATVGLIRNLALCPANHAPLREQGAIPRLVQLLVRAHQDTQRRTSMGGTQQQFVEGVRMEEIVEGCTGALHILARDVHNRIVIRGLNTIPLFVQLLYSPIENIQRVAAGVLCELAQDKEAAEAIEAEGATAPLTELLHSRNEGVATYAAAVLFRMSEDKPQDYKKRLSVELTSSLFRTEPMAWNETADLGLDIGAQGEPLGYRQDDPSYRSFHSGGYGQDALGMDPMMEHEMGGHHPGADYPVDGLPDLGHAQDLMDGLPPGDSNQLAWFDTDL
- Sequence (O00512 whole entry, further chain, the tested form may be a part): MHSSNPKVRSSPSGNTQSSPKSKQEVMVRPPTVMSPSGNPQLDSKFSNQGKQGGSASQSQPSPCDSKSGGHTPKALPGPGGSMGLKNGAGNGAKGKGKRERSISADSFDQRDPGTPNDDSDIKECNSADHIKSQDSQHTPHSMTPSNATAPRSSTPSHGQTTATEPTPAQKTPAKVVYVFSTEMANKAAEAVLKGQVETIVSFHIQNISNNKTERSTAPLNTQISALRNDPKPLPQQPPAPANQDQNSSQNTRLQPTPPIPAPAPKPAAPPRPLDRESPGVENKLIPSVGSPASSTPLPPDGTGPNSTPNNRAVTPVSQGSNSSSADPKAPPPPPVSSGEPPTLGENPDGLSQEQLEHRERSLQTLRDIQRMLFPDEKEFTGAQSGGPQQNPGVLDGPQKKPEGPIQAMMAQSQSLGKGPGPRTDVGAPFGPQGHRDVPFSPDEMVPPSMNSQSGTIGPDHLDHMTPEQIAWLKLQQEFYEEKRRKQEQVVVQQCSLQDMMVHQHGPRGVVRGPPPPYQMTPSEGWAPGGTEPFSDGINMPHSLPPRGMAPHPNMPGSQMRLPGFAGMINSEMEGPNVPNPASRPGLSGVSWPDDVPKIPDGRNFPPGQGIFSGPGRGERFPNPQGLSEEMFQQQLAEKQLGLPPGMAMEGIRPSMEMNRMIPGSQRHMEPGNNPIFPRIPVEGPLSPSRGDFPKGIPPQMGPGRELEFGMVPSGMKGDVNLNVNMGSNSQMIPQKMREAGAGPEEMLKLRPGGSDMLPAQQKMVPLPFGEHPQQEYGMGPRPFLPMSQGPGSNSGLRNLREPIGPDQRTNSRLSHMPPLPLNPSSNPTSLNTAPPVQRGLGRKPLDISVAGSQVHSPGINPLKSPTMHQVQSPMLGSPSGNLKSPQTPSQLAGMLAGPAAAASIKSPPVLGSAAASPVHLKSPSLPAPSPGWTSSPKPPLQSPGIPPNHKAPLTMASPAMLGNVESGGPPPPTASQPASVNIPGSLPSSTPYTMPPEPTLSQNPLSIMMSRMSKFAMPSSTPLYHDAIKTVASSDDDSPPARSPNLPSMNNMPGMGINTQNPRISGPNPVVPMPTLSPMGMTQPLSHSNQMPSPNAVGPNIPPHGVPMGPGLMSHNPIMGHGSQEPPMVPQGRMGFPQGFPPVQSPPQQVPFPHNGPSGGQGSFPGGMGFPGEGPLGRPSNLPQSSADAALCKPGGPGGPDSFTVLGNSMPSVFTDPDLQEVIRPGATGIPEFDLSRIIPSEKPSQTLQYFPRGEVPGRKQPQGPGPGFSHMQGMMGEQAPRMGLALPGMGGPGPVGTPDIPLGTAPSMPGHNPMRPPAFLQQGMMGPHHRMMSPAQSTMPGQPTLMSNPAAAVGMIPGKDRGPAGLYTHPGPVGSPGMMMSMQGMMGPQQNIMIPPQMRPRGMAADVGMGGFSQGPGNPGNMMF
- Experiment notes: Inhibition of C-terminal 6-His-tagged beta-catenin (1 to 781 residues) (unknown origin) expressed in Escherichia coli BL21 (DE3)-N-terminal biotinylated human BCL9 (350 to 375 residues) protein-protein interaction incubated for 1 hr by Alphascreen assay
Quantity kind: IC50 (µM)

CC(C)(Oc1cccc(N2CCC[C@@H](C(=O)N(Cc3ccc(-c4ccccc4)cc3)C3CC3)C2)c1)C(=O)N1CCNCC1 = 4.5

[A] CC(C)c1ccc(CNC(=O)[C@@H]2CCCN(c3cccc(OC(C)(C)C(=O)N4CCNCC4)c3)C2)cc1
[B] CC(C)c1ccc(CN(C(=O)[C@@H]2CCCN(c3cccc(OC(C)(C)C(=O)N4CCNCC4)c3)C2)C2CC2)cc1
[C] CC(C)c1ccc(CNC(=O)[C@@H]2CCCN(c3cccc(OC(C)(C)C(=O)O)c3)C2)cc1
Please list these in order of increasing IC50. Thank you! I'd appreciate it if you listed the labels in the requested order.
B, A, C
(B: 3 µM, A: 6.4 µM, C: 51 µM)
